// provenance: patent US7214669B2

target: Human recombinant MMP9 (Homo sapiens, UniProt P14780); assay: MMP9 (Gelatinase B) inhibition, 14C gelatin release; type: biochemical; settings: 37° C., 16 hours; read-out: MMP-9 inhibitory activity, IC50
Sequence (P14780 94-707): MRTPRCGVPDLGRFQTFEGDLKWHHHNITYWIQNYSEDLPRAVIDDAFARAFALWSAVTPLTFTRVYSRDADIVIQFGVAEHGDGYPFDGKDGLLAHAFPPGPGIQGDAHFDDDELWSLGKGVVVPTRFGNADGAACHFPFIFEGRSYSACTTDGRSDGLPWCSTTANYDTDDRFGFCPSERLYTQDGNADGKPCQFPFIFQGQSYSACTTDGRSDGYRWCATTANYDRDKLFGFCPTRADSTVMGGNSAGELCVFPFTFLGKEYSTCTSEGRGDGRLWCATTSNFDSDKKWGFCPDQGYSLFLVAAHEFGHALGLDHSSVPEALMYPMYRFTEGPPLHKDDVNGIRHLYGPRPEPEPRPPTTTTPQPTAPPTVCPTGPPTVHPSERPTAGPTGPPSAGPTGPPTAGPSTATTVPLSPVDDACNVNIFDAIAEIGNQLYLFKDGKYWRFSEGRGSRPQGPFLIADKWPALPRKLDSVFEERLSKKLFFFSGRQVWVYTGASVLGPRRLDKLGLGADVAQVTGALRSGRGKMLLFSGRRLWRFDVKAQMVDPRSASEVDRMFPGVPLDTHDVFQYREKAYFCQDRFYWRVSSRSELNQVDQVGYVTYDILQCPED
measurement_type: IC50 (µM)

a. CCCCN(CCCC)c1ccc(O)c2c1C(C)C1C(=C(O)C3(O)C(=O)C(C(N)=O)=C(O)C(N(C)C)C3C1O)C2=O (stereo not shown)
b. CC1c2c(N=[N+]=[N-])cc(C(C)(C)C)c(O)c2C(=O)C2=C(O)C3(O)C(=O)C(C(N)=O)=C(O)C(N(C)C)C3C(O)C21 (stereo not shown)
c. C[C@H]1c2c(N)ccc(O)c2C(=O)C2=C(O)[C@]3(O)C(=O)C(C(N)=O)=C(O)C[C@@H]3[C@@H](O)[C@@H]21
d. CC1c2c([N+](=O)[O-])cc(C(C)(C)C)c(O)c2C(=O)C2=C(O)C3(O)C(=O)C(C(N)=O)=C(O)C(N(C)C)C3C(O)C21 (stereo not shown)
Output the entries ranked by IC50 from maximum down to minimum. Thanks in advance for listing the labels in the requested order.
b, c, d, a

====

system: MDA-MB-231 human breast cancer cells; assay: Membrane Invasion Culture System (MICS) chemo-invasion assay; format: cell-based; details: 1 ug/mL; 24 hours; + = increased invasiveness
Structures can show the parent of a compound that is named as a salt.
measurement_type: percent inhibition, MDA-MB-231 (Breast) (%)
Write the value in % as a bare number.

Examples with answers:
>>> observed("CN(C)C1C(O)=C(C(N)=O)C(=O)C2(O)C(O)=C3C(=O)c4c(O)ccc(Cl)c4C(C)(O)C3CC12 (stereo not drawn) [Compound 52, 4-Epi-7-Chlorotetracycline hydrochloride]")
5
>>> observed("CC1c2c(N)cc(C(C)(C)C)c(O)c2C(=O)C2=C(O)C3(O)C(=O)C(C(N)=O)=C(O)CC3C(O)C21.O=S(=O)(O)O (stereo not shown)")
6
>>> observed("CC1c2ccc(N)c(O)c2C(=O)C2=C(O)C3(O)C(=O)C(C(N)=O)=C(O)C(N(C)C)C3C(O)C21 (stereo not shown)")
20
>>> observed("CN(C)[C@@H]1C(=O)C(C(N)=O)=C(O)[C@@]2(O)C(=O)C3=C(O)c4c(O)cccc4C[C@H]3C[C@@H]12.Cl [Compound 53, 6-Demethyl-6-deoxytetracycline HCl]")
9

In the following, a different molecule is considered.
get_value(item= CN(C)c1cc([N+](=O)[O-])c(O)c2c1CC1CC3C(N(C)C)C(O)=C(C(N)=O)C(=O)C3(O)C(O)=C1C2=O (stereo not shown) , readout=percent inhibition, MDA-MB-231 (Breast)) returns 5

====

system: PC-3 ML human prostate cancer cells; test: Membrane Invasion Culture System (MICS) chemo-invasion assay; assay type: cell-based; conditions: 1 ug/mL; 24 hours; + = increased invasiveness
measurement_type: percent inhibition, PC-3 ML (Prostrate)

Examples with answers:
>>> observed("CC1c2ccc(-c3ccc(F)cc3)c(O)c2C(=O)C2=C(O)C3(O)C(=O)C(C(N)=O)=C(O)C(N(C)C)C3C(O)C21 (stereo not drawn)")
"+4%"
>>> observed("CN(C)c1ccc(O)c2c1CC1CC3CC(O)=C(C(N)=O)C(=O)C3(O)C(O)=C1C2=O (stereo not drawn)")
"+4%"

In the following, a different molecule is considered.
get_value(item= CC1c2c([N+]#N)cc(C(C)(C)C)c(O)c2C(=O)C2=C(O)C3(O)C(=O)C(C(N)=O)=C(O)CC3C(O)C21 (stereo not drawn) , readout=percent inhibition, PC-3 ML (Prostrate)) returns +14%

====

Measured percent inhibition, MDA-MB-231 (Breast), listed per entry for reference.
tested on: MDA-MB-231 human breast cancer cells; assay: Membrane Invasion Culture System (MICS) chemo-invasion assay; assay type: cell-based; conditions: 10 ug/mL; 24 hours; + = increased invasiveness

Examples with answers:
>>> observed("CC1c2c(N(NC(=O)OCc3ccccc3)C(=O)OCc3ccccc3)ccc(O)c2C(=O)C2=C(O)C3(O)C(=O)C(C(N)=O)=C(O)C(N(C)C)C3C(O)C21.Cl (stereo not shown)")
"+16^B percent"
>>> observed("CC1c2cccc(O)c2C(=O)C2=C(O)C3(O)C(=O)C(C(N)=O)=C(O)C([N+](C)(C)C)C3C(O)C21.[I-] (stereo not shown)")
"+5%"
>>> observed("CC(=O)Nc1cc(N(C)C)c2c(c1O)C(=O)C1=C(O)C3(O)C(=O)C(C(N)=O)=C(O)C(N(C)C)C3CC1C2 (stereo not shown)")
"+5%"
>>> observed("CN(C)[C@@H]1C(=O)C(C(N)=O)=C(O)[C@@]2(O)C(=O)C3=C(O)c4c(O)cccc4C[C@H]3C[C@@H]12.Cl [Compound 53, 6-Demethyl-6-deoxytetracycline HCl]")
"49^B percent"
>>> observed("CC1c2ccc(C(C)(C)C)c(O)c2C(=O)C2=C(O)C3(O)C(=O)C(C(N)=O)=C(O)C(N(C)C)C3C(O)C21 (stereo not shown)")
"29^B percent"
>>> observed("CC(C)Nc1ccc2c(c1O)C(=O)C1=C(O)C3(O)C(=O)C(C(N)=O)=C(O)C(N(C)C)C3C(O)C1C2C (stereo not shown)")
"+2%"

get_value(item= CN(C)c1cc(N)c(O)c2c1CC1CC3C(N(C)C)C(O)=C(C(N)=O)C(=O)C3(O)C(O)=C1C2=O (stereo not shown) , readout=percent inhibition, MDA-MB-231 (Breast)) returns +41^B percent

====

Lab note: IC50 readings collected with MMP2 (Gelatinase A) (Homo sapiens) for the following compounds.
Sequence (P08253 110-660): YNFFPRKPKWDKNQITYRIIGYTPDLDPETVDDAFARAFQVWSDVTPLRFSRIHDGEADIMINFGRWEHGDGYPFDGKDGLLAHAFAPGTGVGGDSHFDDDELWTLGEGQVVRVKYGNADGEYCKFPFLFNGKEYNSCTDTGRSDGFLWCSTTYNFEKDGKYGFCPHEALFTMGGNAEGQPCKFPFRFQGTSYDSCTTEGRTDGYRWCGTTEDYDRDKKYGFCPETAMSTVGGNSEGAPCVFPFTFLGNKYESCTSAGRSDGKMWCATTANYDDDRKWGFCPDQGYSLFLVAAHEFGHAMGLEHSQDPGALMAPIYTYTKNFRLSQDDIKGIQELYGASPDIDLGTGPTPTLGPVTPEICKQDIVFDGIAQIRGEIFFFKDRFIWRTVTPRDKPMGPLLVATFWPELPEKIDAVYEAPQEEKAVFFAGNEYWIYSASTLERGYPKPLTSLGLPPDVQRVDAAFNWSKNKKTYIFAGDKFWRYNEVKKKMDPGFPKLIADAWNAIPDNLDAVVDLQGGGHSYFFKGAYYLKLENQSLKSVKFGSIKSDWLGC

Examples with answers:
>>> observed("CC1c2ccc([N+](=O)[O-])c(O)c2C(=O)C2=C(O)C3(O)C(=O)C(C(N)=O)=C(O)C(N(C)C)C3C(O)C21 (stereo not drawn)")
"> 700 µM"
>>> observed("CC(=O)OC1C2C(=C(O)C3(O)C(=O)C(C(N)=O)=C(O)C(N(C)C)C13)C(=O)c1c(O)cccc1C2C (stereo not drawn)")
"> 1000 µM"

In the following, a different compound is considered.
Value (IC50, MMP2 (Gelatinase A) (Homo sapiens)) for record CC1c2ccc([N+]#N)c(O)c2C(=O)C2=C(O)C3(O)C(=O)C(C(N)=O)=C(O)CC3C(O)C21.O=S(=O)([O-])O (stereo not drawn) = > 1000 µM

====

target: Human recombinant MMP1 (Homo sapiens); assay: MMP1 (Collagenase-1) inhibition, 14C collagen release; conditions: 35° C., 5 hours; read-out: MMP-1 inhibitory activity, IC50
measurement_type: IC50 (µM)

Examples with answers:
>>> observed("CC1c2c(NC3CCC3)ccc(O)c2C(=O)C2=C(O)C3(O)C(=O)C(C(N)=O)=C(O)C(N(C)C)C3C(O)C21 (stereo not shown)")
601
>>> observed("CCCCCCN(CCCCCC)c1ccc(O)c2c1C(C)C1C(=C(O)C3(O)C(=O)C(C(N)=O)=C(O)C(N(C)C)C3C1O)C2=O (stereo not shown)")
123
>>> observed("CC1c2ccc(C(C)(C)C)c(O)c2C(=O)C2=C(O)C3(O)C(=O)C(C(N)=O)=C(O)C(N(C)C)C3C(O)C21 (stereo not shown)")
860

I. CN(C)c1ccc(O)c2c1CC1CC3CC(O)=C(C(N)=O)C(=O)C3(O)C(O)=C1C2=O (stereo not shown)
II. CC1c2cccc(O)c2C(=O)C2=C(O)C3(O)C(=O)C(C(N)=O)=C(O)CC3C(O)C21 (stereo not shown)
Kindly compare I with II and tell me which has the lower IC50 figure. Lab log: write the label of the selected item as the result.
II
(II: 242 µM, I: 478 µM)

====

biological target: Human recombinant MMP3 (Homo sapiens, UniProt P08254); assay: MMP3 (Stromelysin 1) inhibition, 14C casein release; conditions: 37° C., 16 hours; read-out: MMP-3 inhibitory activity, IC50
Sequence (P08254 100-477): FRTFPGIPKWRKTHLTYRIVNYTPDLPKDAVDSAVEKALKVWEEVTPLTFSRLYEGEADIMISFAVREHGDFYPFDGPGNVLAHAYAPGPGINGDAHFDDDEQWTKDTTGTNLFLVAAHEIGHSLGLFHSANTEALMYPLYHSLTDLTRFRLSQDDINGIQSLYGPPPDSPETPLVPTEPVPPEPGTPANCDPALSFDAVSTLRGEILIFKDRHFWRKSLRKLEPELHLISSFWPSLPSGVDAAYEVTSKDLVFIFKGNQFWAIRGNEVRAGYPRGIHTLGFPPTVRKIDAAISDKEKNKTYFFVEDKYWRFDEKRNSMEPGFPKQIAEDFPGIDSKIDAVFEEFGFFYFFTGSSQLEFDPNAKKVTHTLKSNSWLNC
pIC50: −log10 of the molar value.
measurement_type: pIC50

Examples with answers:
>>> observed("CC1c2ccc([N+](=O)[O-])c(O)c2C(=O)C2=C(O)C3(O)C(=O)C(C(N)=O)=C(O)CC3C(O)C21 (centres unmarked)")
3.66
>>> observed("CC(=O)Nc1cc(N(C)C)c2c(c1O)C(=O)C1=C(O)C3(O)C(=O)C(C(N)=O)=C(O)C(N(C)C)C3CC1C2 (centres unmarked)")
3.63

a. CC(C)CNc1ccc(O)c2c1C(C)C1C(=C(O)C3(O)C(=O)C(C(N)=O)=C(O)C(N(C)C)C3C1O)C2=O (centres unmarked)
b. CC(C)CN(C)c1ccc(O)c2c1C(C)C1C(=C(O)C3(O)C(=O)C(C(N)=O)=C(O)C(N(C)C)C3C1O)C2=O (centres unmarked)
Kindly compare a with b and tell me which has the lower pIC50 figure. Lab log: write the label of the selected item as the result.
a
(a: 3.52, b: 3.83)

====

target: Human recombinant MMP1 (Homo sapiens, UniProt P03956); test: MMP1 (Collagenase-1) inhibition, 14C collagen release; details: 35° C., 5 hours; read-out: MMP-1 inhibitory activity, IC50
Sequence (P03956 100-469): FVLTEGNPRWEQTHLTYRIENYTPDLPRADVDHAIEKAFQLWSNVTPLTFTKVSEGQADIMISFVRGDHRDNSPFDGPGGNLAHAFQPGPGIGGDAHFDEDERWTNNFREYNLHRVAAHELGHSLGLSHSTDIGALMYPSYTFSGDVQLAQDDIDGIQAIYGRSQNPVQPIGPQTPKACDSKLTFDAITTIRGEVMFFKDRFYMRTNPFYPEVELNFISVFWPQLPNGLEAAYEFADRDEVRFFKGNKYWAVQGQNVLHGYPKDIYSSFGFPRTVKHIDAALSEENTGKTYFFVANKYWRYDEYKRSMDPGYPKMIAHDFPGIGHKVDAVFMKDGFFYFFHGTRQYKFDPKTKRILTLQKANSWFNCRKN
pIC50: −log10 of the molar value.
measurement_type: pIC50

>>> observed("CC1c2ccc([N+]#N)c(O)c2C(=O)C2=C(O)C3(O)C(=O)C(C(N)=O)=C(O)CC3C(O)C21.O=S(=O)([O-])O (stereo not drawn)")
3.55
>>> observed("CC1c2ccc([N+](=O)[O-])c(O)c2C(=O)C2=C(O)C3(O)C(=O)C(C(N)=O)=C(O)C(N(C)C)C3C(O)C21 (stereo not drawn)")
3.57
>>> observed("CC1c2c([N+](=O)[O-])cc(C(C)(C)C)c(O)c2C(=O)C2=C(O)C3(O)C(=O)C(C(N)=O)=C(O)CC3C(O)C21 (stereo not drawn)")
3.25
>>> observed("C[C@H]1c2c(N(C)C)cc([N+]#N)c(O)c2C(=O)C2=C(O)[C@]3(O)C(=O)C(C(N)=O)=C(O)[C@@H](N(C)C)[C@@H]3[C@@H](O)[C@@H]21")
3.21
>>> observed("CC1c2ccc(N=[N+]=[N-])c(O)c2C(=O)C2=C(O)C3(O)C(=O)C(C(N)=O)=C(O)C(N(C)C)C3C(O)C21 (stereo not drawn)")
3.40
>>> observed("CC1c2c(N(NC(=O)OCc3ccccc3)C(=O)OCc3ccccc3)ccc(O)c2C(=O)C2=C(O)C3(O)C(=O)C(C(N)=O)=C(O)C(N(C)C)C3C(O)C21.Cl (stereo not drawn) [Compound 47, HCl]")
3.50
